This collection of values is drawn from patent US9566312B2.

Target: UniProt:P23284
Assay: Inhibitor binding to cyclophilin proteins by SPR, CypB
Design: unit not given here
Conditions: 1:1 binding model
Starred links: 1 amine or outer side, 2 acyl side, 3 side chain; linkers in the order of their positions; H or OH if unused. Non-standard residues stand in square brackets, D forms with d. Residues, ends and D or L forms follow the SMILES beside them. X58 = C[C@H](COCCN1CCN(C2CCC2)CC1)[C@@H](C(=O)[*:2])N(C)[*:1]; X30 = C[C@H](CN1CCCOCC1)[C@@H](C(=O)[*:2])N(C)[*:1]; MeBmt = C/C=C/C[C@@H](C)[C@@H](O)[C@H](NC)C(=O)O; NMeL = CN[C@@H](CC(C)C)C(=O)O; NMeV = CN[C@H](C(=O)O)C(C)C; dNMeA = CN[C@H](C)C(=O)O; Abu = CC[C@H](N)C(=O)O

# compound, CypB Kd
measured = [
    ("C/C=C/C[C@@H](C)[C@@H](O)[C@H]1C(=O)N[C@@H](CC)C(=O)N(C)[C@H](C)C(=O)N(C)[C@@H]([C@H](C)CN2CCCOCC2)C(=O)N[C@@H](C(C)C)C(=O)N(C)[C@@H](CC(C)C)C(=O)N[C@@H](C)C(=O)N[C@H](C)C(=O)N(C)[C@@H](CC(C)C)C(=O)N(C)[C@@H](CC(C)C)C(=O)N(C)[C@@H](C(C)C)C(=O)N1C [Compound 2.5.21] (cyclo(A[dA][NMeL][NMeL][NMeV][MeBmt][Abu][dNMeA][X30]V[NMeL]))", 0.9),
    ("C/C=C/C[C@@H](C)[C@@H](O)[C@H]1C(=O)N[C@@H](CC)C(=O)N(C)[C@H](C)C(=O)N(C)[C@@H]([C@H](C)COCCN2CCN(C3CCC3)CC2)C(=O)N[C@@H](C(C)C)C(=O)N(C)[C@@H](CC(C)C)C(=O)N[C@@H](C)C(=O)N[C@H](C)C(=O)N(C)[C@@H](CC(C)C)C(=O)N(C)[C@@H](CC(C)C)C(=O)N(C)[C@@H](C(C)C)C(=O)N1C [Compound 2.8.8] (cyclo(A[dA][NMeL][NMeL][NMeV][MeBmt][Abu][dNMeA][X58]V[NMeL]))", 0.5),
]

###

Molecular target: cyclophilin B (CypB) (Homo sapiens (Human))
Sequence (P23284 34-216): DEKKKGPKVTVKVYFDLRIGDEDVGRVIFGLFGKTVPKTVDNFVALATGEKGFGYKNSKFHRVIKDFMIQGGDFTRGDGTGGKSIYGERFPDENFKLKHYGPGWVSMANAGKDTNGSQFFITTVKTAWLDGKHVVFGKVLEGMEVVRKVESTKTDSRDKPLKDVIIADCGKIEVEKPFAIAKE
Test: Inhibitor binding to cyclophilin proteins by SPR, CypB
Parameters: unit not given here
Settings: 1:1 binding model
Starred links: 1 amine or outer side, 2 acyl side, 3 side chain; linkers in the order of their positions; H or OH if unused. Non-standard residues stand in square brackets, D forms with d. Residues, ends and D or L forms follow the SMILES beside them. X34 = C[C@H](COC(=O)N1CCOCC1)[C@@H](C(=O)[*:2])N(C)[*:1]; MeBmt = C/C=C/C[C@@H](C)[C@@H](O)[C@H](NC)C(=O)O; X13 = C[C@H](CC#N)[C@@H](C(=O)[*:2])N(C)[*:1]; NMeL = CN[C@@H](CC(C)C)C(=O)O; NMeV = CN[C@H](C(=O)O)C(C)C; dNMeA = CN[C@H](C)C(=O)O; Abu = CC[C@H](N)C(=O)O
CypB Kd reference
metric: CypB Kd

# compound, tgt, experimental_result
measured = [
    ("C/C=C/C[C@@H](C)[C@@H](O)[C@H]1C(=O)N[C@@H](CC)C(=O)N(C)[C@H](C)C(=O)N(C)[C@@H]([C@H](C)COC(=O)N2CCOCC2)C(=O)N[C@@H](C(C)C)C(=O)N(C)[C@@H](CC(C)C)C(=O)N[C@@H](C)C(=O)N[C@H](C)C(=O)N(C)[C@@H](CC(C)C)C(=O)N(C)[C@@H](CC(C)C)C(=O)N(C)[C@@H](C(C)C)C(=O)N1C [Compound 2.5.7] (cyclo([MeBmt][Abu][dNMeA][X34]V[NMeL]A[dA][NMeL][NMeL][NMeV]))", "cyclophilin B (CypB) (Homo sapiens (Human))", 1.3),
    ("C/C=C/C[C@@H](C)[C@@H](O)[C@H]1C(=O)N[C@@H](CC)C(=O)N(C)[C@H](C)C(=O)N(C)[C@@H]([C@H](C)CC#N)C(=O)N[C@@H](C(C)C)C(=O)N(C)[C@@H](CC(C)C)C(=O)N[C@@H](C)C(=O)N[C@H](C)C(=O)N(C)[C@@H](CC(C)C)C(=O)N(C)[C@@H](CC(C)C)C(=O)N(C)[C@@H](C(C)C)C(=O)N1C [Compound 2.10] (cyclo(A[dA][NMeL][NMeL][NMeV][MeBmt][Abu][dNMeA][X13]V[NMeL]))", "cyclophilin B (CypB) (Homo sapiens (Human))", 0.5),
]
